Measured protein stability index, listed per entry for reference.
Assay: protein stability index of a GFP-peptide fusion (yeast GPS) (PSI 1-4); higher = more stable; sorted into four equal gates, so the index is relative within each strain
Conditions: doa10∆
QUANTITY: protein stability index

SEQUENCE TEXT	QUANTITY	OBSERVED MEASUREMENT
KLINIKKFDISNDNLDL [MED1]	protein stability index	2.83
ELSVTGSAINHHRIFDS [YMR129W/POM152]	protein stability index	3.02
TDKSNSPIGFTNSPQIS [SMC2]	protein stability index	3.02
RNARAARAAKIAPRPLD [RPL13B]	protein stability index	2.86
YQRSKRVNNPNVSLIKI [RPL33A]	protein stability index	3.1
GITAVHVKIRATGGTRT [RPS14B]	protein stability index	1.47
QQMIITRLKSLLKPFHV [SIR3]	protein stability index	2.17

---

Measured protein stability index, listed per entry for reference.
Assay: protein stability index of a GFP-peptide fusion (yeast GPS) (PSI 1-4); higher = more stable; sorted into four equal gates, so the index is relative within each strain
Settings: pdr5∆
QUANTITY: protein stability index

SEQUENCE TEXT	OBSERVED MEASUREMENT
NTGIVSSTTGMSYVVRI [RPT3]	3.04
EEIVVVASADYESQTFS [PRP8]	3.5
DDENNPSHYPHPYEYEI [RRP6]	2.89
IEAASTTQDQCKLTLDI [RPB8]	3.12
VSNNVLRRLEILVPDLY [ECM29]	1.84
KSFISKLLGIGDIESLF [SRP54]	1.82
KAIRGMVSHKTARGKAA [RPL16B]	2.01
KLLKGATLYIPKALRFD [FAS2]	2.79
KGTNDEGTSISVHLIEC [YCS4]	2.73
TKIKPFIKVVNYNHLLP [RPL27A]	2.35
VVDANGCVNSLISGPRN [YMR129W/POM152]	2.69
IIAVKGSGSRLNRLPAA [RPL23A]	1.17
TDSWESFFVSVRKAITV [FAS1]	2.4
RITKSNEKSQAEQEKAK [LRP1]	1.33
YQELGSLQSSSQTQLEN [MED2]	3.3
MIKESSTANPNIKLLNN [POP1]	2.9
IYDFPGTPEATKGMITN [NUT2]	2.54
IVDFTLPPPPPPPGLDE [PRP8]	3.1
ALGQDTEKMEEQLDLLS [MED11]	3.09
MNGNGKPGIPRGNTKIH [SIR3]	2.83
VGFGESNFTSIIGPNGS [SMC1]	3.34
EKESDDGLLEYLEDIIG [SMC4]	3.31
MGVPIYGIVAMAATATD [FAS2]	1.52
EDNNDAVNSIMALKFVS [ECM29]	3.3
DKLEKVTHDCYRVTLES [RPC34]	3.3
DVILDYQTKKFYDYIKE [REC8]	2.58
TQVFNILLQHKEKLTVQ [POP1]	3.11
MYCRPAPSDFSENQRQI [GRR1]	2.62
KITSPIRSVALNDSNVK [RRP42]	2.42
GLNAKQLYKARMSIKLL [POP1]	1.73
MLVKAVANSTKAAFIRV [RPT3]	1.5
QHDSSANEDEEEQLDAL [CSN12]	2.75
RMVRSIMWQLLDGVSYL [SSN3]	1.26
LIEEEVEQDEGQCRTEL [YCS4]	3.53
QITIEPGVDVEVVVASN [RPS20]	2.57
INAEEIVDFTLPPPPPP [PRP8]	3.06
KKEEEEQLSEEDAKLKT [RPN1]	3.24
SPVYDVDPRIINSENDY [NUT1]	3.02
DNKDKEGNAGGDQKTSE [YOR098C/NUP1]	3.6
NGNITYSEEPREKVRKL [FAS2]	3.54
NIPQQQQMQPPNSSANN [GAL11]	2.9
LLLITHHSWSQSDLEII [ARP9]	1.68
RFVMPNQLLAALVAYTP [RRP6]	1.84
LEHLHSTAFQNTPLSLP [COR1]	2.66
FHIACSVGNLEVVKSLY [NAS6]	2.39
NLLPKKSAKATKASQEL [HTA1]	3.09
NTFTWNHSLQHQNESSA [RPN4]	3.19
AINVFPEGYKAKSISTS [RPO31]	1.8
GSNKAQISIIDIWSISK [YML031W/NDC1]	2.76
GTIDKLQLELTIEDIAV [RPO31]	2.79
DIVSIDIEEPQLDLLDD [MTW1]	3.17
KVKAGVRSANEDGTFSV [RRP43]	3.24
PQEPKHIQEEEEQDVDM [RPC19]	3.36
LPELWALLNFVLPKIFN [SNF2]	1.89
DHKYVCTFSMEPYHFIS [SRB8]	2.03
FLQSVDITGIRDVSDDV [GRR1]	2.12
IIDHIPGHSLLLSIKLP [SNF5]	1.61
DNDFIINDFKKIGRENE [POP5]	3.38
ILTPESQLKKSKAQQKT [RPL7A]	3.02
NSSEQESDYEPNNETSV [SIR3]	3.27
KNTIDFERFPSPSTSAN [RPN4]	2.95

FYI, the data here is from the supplement of paper PMC9732359.
